biological target: PCSK9 (Homo sapiens, UniProt Q8NBP7;Q8NBP7 Q8NBP7:31-152,Q8NBP7:153-692); assay: SPR; two-state reaction kinetic model; conditions: tags: ACROBiosystems PC9-H5223; label: 3' iSp18-dual biotin
Sequence (Q8NBP7 31-152, chain 1 of 2): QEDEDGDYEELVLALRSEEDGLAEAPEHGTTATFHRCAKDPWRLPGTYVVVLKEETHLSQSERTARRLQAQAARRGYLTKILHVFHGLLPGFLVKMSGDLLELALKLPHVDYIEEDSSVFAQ
Sequence (Q8NBP7 153-692, chain 2 of 2): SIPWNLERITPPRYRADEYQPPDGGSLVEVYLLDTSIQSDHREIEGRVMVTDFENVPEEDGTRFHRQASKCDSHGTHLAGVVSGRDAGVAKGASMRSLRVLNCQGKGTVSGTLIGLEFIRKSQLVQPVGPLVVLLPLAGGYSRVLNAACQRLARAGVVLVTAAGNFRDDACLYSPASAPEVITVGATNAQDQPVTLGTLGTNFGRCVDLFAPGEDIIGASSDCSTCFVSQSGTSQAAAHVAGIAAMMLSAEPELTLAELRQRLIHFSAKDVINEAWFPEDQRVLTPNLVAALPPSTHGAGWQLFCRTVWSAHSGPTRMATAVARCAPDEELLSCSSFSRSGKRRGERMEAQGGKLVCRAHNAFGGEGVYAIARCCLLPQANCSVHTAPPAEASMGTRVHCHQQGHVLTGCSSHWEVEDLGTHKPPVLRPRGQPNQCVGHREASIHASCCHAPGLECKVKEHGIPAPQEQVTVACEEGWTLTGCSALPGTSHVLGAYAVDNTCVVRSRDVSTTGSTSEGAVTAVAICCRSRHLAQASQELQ
pKd: −log10 of the molar value.
METRIC NAME: pKd

The reported value for TGCTACCGTTGTTTACCCTGCCACCTTCTGGAGTCCAGATGTAGGTAG (ssDNA, as PCSK9-Evo5 except CAC unmodified [side chains as PCSK9-Evo5 except CAC codon (nt 22-24) unmodified (isopentyl removed); base sequence unchanged]) [PCSK9-Evo5 CAC delta side chain] in terms of pKd is ~6.38

Measured values drawn from patent US20200172896 for this set.
